# testSystem: MAGI2_2, Q86UL8
# Sequence (Q86UL8 410-522): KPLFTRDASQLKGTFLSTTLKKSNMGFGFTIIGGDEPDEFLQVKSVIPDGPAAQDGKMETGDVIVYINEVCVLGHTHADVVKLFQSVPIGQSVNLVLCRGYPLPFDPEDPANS
# methodSummary: holdup assay
# Set-up: key: below the threshold = too weak to quantify, mostly under pKd 3.1 to 4
# conditionNotes: plain residues with an end cap or a label only (N-terminal biotin on a linker: ado-ado)
Below, each of the binders is paired with its reported pKd value.
assayMetric: pKd

1) KSGKQTMLVV [TRIM29, Q14134]; 3.51
2) RRISSLESEV [GRIN2C, Q14957]; 4.58
3) SGSLKLMTTV [DACT1, Q9NYF0]; 5.28
4) PPYRHRNTVV [ERBB4, Q15303]; 4.6
5) RRRESYSTTV [EVI5, O60447]; 5.15
